Target: Leucine-rich repeat serine/threonine-protein kinase 2 (Homo sapiens, UniProt Q5S007, G2019S)
Sequence (Q5S007 whole entry G2019S, the tested form may be a part): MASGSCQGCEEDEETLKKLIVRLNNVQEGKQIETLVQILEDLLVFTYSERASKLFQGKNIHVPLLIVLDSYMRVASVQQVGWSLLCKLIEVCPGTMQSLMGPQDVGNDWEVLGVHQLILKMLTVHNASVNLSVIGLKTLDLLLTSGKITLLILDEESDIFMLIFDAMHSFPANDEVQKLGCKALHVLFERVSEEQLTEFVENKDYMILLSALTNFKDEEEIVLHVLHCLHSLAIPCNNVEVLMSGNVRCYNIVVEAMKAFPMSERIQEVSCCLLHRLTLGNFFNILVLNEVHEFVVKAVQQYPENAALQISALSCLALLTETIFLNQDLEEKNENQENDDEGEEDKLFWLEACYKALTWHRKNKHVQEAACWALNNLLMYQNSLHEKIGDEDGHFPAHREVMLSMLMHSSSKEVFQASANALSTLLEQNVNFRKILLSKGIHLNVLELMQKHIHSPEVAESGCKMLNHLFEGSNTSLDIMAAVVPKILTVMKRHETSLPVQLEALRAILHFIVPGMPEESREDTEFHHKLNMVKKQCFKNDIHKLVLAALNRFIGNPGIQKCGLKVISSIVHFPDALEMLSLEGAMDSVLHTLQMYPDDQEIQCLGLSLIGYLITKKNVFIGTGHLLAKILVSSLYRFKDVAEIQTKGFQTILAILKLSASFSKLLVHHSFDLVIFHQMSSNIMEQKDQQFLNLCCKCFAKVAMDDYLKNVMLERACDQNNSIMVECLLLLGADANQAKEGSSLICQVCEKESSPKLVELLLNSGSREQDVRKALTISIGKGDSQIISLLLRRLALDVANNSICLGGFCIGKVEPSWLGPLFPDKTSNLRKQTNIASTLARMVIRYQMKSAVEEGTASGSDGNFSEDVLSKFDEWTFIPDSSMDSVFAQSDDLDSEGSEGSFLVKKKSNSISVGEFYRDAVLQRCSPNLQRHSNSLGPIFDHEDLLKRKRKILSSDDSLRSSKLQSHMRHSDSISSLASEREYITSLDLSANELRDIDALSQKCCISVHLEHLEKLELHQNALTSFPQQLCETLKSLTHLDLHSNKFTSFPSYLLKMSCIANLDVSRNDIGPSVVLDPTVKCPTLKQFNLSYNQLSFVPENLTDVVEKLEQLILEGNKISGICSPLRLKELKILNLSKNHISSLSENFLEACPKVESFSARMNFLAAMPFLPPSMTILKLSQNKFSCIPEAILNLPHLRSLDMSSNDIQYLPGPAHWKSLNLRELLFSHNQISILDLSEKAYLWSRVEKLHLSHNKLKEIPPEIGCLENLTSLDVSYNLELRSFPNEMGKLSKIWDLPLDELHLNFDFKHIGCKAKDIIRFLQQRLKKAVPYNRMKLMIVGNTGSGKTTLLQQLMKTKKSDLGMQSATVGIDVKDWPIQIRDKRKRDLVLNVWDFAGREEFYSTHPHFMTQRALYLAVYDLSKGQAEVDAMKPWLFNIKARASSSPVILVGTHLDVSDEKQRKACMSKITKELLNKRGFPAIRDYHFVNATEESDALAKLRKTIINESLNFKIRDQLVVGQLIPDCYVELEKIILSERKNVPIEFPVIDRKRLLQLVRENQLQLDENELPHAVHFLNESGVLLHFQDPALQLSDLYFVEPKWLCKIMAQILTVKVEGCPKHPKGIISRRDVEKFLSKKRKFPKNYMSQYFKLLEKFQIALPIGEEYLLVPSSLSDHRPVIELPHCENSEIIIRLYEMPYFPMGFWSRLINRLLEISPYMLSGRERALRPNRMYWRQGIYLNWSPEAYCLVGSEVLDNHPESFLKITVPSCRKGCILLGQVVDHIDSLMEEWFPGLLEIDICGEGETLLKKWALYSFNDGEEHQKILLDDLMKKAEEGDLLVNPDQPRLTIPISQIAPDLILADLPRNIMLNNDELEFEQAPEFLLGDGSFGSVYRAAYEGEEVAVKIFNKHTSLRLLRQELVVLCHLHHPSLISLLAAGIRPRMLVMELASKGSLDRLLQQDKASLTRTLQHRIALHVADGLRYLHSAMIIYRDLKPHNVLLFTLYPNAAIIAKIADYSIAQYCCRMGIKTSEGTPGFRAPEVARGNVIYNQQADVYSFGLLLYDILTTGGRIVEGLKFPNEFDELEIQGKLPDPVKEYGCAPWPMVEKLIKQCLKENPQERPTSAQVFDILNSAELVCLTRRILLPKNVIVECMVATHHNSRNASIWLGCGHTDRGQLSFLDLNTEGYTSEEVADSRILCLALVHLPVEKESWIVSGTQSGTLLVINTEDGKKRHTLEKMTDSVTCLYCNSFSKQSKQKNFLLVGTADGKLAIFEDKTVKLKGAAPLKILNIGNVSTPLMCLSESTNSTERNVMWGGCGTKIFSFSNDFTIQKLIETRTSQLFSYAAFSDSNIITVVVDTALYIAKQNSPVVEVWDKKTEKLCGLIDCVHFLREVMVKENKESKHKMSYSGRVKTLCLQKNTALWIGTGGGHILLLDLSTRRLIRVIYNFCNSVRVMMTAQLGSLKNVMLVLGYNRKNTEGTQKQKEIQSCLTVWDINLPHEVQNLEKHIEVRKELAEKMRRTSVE
Assay: Binding affinity to human GST tagged truncated LRRK2 G2019S mutant incubated for 2 hrs by TR-FRET based Lanthascreen kinase activity assay
quantity measured: Ki (nM)

Some compounds with recorded Ki:
- compound: "C[C@@H]1CCCN1c1[nH]c2ncnc(N)c2c1C#N"
  Ki, nM: 14
- compound: "C[C@@H]1CCCN1c1c(C#N)c2c(N)ncnc2n1C"
  Ki, nM: 0.7
- compound: "Cc1nn(C)cc1Nc1nc(N)c2c(C#N)c(N3CCC[C@H]3C)n(C)c2n1"
  Ki, nM: 2

(a) Nc1ncnc2[nH]ncc12
(b) C[C@H]1CCCN1c1c(C#N)c2c(N)ncnc2n1C
Hi there! Just curious which has the higher Ki between a and b . Lab log: write the label of the selected item as the result.
a
